Assay: chemical genetic growth profiling, strain panel (AID 1159580);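 note: tested at 20 µM; growth read once vehicle control cultures reached saturation at 30 °C; 1 = growth at the plate median or of vehicle wells; lower values mean less growth of the strain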
Conditions: S. cerevisiae deletion strains, growth OD, locus YEL061C, strain CIN8, hits give low values
Among all 5,500 compounds or so, about 2,000 (36%) were called active. Roughly 18% stayed inconclusive and do not appear here. The list shows a part of the results.
# if measured normalized growth < 1: condition met  # else: condition not met

CCCCC#Cc1ccc(C(=O)NNC(=O)Nc2cc(Cl)cc(Cl)c2)o1 : condition met

Moving on to the next compound.
Request: Identify whether the compound Clc1cc(Cl)cc(Br)c1 records normalized growth below 1.
Result: condition not met

###

Test: chemical genetic growth profiling, strain panel (AID 1159580);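 note: tested at 20 µM; growth read once vehicle control cultures reached saturation at 30 °C; 1 = growth at the plate median or of vehicle wells; lower values mean less growth of the strain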
Settings: S. cerevisiae deletion strains, growth OD, locus YOL006C, strain TOP1, hits give low values
Hit rate of the full screen: of about 5,500 compounds, about 2,000 (36%) were called active. About 18% were inconclusive and are not listed. The list shows a part of the results.
Each entry below carries its recorded normalized growth.
Write no unit; give the number alone.

Solved cases below.
O=c1c(O)c(-c2ccccc2)oc2ccccc12 : 1.06
Cn1c(=O)c2c(ncn2CCO)n(C)c1=O : 0.99
N[C@@H](C(=O)N[C@@H]1C(=O)N2C(C(=O)O)=C(Cl)CS[C@H]12)c1ccccc1 : 1.02
CC(=N/O)/C(C)=C/c1ccc(Cl)cc1 : 0.305
CC1=C(C(=O)O)N2C(=O)[C@@H](NC(=O)[C@@H](N)c3ccc(O)cc3)[C@H]2SC1 : 1.1

Lab note: measured normalized growth of C[N+]12CCC(CC1)C(OC(=O)C(O)(c1ccccc1)c1ccccc1)C2 (configuration not stated) was 0.965
